The reported numbers originate from PubChem BioAssay (NCI).

growth for assorted molecules
Tested on: HOP-92 NSCLC
Experiment: NCI-60 one-dose screen, 48 h (100 = growth as untreated, 0 = no growth, -100 = all killed)
Conditions: 10 µM unless noted
This is part of a sample that, as a whole, favours compounds with a hit. Of some 83,000 tested, about 20% had one in any assay.
Answer with a number only, understood to be in %.

Solved cases (6 shown):
CCCCCCCC/C=C/CCCCCCCC1=NC(C)(C)CN1C(C)(C)CO	20.3
CCC(C)/C(=C\C#N)NCCCN/C(=C/C#N)C(C)CC (configuration not stated)	86.5
COc1cc(NC(=O)SC2=NCCS2)cc(OC)c1	84.7
CC(C)(C)n1cc(-c2ccnc(NCCCNS(=O)(=O)c3ccc(Cl)cc3)c2)c(-c2cccc(O)c2)n1	-2.33
COc1ccc(/C=C2\Oc3cc(OCCCN4CCCC4)ccc3C2=O)c(OC)c1	83.8
Cc1ccc2nc(Cl)cc(=O)n2c1	104

Prompt: Read the entry Cc1ccc(S(=O)(=O)/C(=C\c2ccc(Cl)cc2)C(=O)c2ccccc2)cc1 and write its reported growth.
Completion: 94.6

Prompt: Read the entry O=C(c1ccccc1)C1OC1c1ccc([N+](=O)[O-])cc1 (configuration not stated) and write its reported growth.
Completion: 61.5

Prompt: Read the entry CCCOC(=O)n1cccc1 and write its reported growth.
Completion: 97
